assay: Partition coefficient (logP); format: physicochemical; details: octanol/water
assay-readout: logP

logP recorded for this compound, `CCOc1nc2cccc(C(=O)O)c2n1Cc1ccc(-c2ccccc2-c2nsc(O)n2)cc1` , is 1.58

---

I'd be grateful if you could share measured pKa for these entries.
test: pka value was determined; type: physicochemical

Looking up `CCOc1nc2cccc(C(=O)O)c2n1Cc1ccc(-c2ccccc2-c2noc(=O)[nH]2)cc1` , I see its pKa listed as 6.1

`CCOc1nc2cccc(C(=O)O)c2n1Cc1ccc(-c2ccccc2-c2nnn[nH]2)cc1` yielded pKa of 5.3

Record `CCOc1nc2cccc(C(=O)O)c2n1Cc1ccc(-c2ccccc2-c2nsc(O)n2)cc1` , field pKa: 6.6

Hello, the source for this data is ChEMBL document CHEMBL1129462, in case you need it.
